The reader will find IC50 measurements below, all made with Nitric oxide synthase 1 (Rattus norvegicus).
Sequence (P29476 whole entry): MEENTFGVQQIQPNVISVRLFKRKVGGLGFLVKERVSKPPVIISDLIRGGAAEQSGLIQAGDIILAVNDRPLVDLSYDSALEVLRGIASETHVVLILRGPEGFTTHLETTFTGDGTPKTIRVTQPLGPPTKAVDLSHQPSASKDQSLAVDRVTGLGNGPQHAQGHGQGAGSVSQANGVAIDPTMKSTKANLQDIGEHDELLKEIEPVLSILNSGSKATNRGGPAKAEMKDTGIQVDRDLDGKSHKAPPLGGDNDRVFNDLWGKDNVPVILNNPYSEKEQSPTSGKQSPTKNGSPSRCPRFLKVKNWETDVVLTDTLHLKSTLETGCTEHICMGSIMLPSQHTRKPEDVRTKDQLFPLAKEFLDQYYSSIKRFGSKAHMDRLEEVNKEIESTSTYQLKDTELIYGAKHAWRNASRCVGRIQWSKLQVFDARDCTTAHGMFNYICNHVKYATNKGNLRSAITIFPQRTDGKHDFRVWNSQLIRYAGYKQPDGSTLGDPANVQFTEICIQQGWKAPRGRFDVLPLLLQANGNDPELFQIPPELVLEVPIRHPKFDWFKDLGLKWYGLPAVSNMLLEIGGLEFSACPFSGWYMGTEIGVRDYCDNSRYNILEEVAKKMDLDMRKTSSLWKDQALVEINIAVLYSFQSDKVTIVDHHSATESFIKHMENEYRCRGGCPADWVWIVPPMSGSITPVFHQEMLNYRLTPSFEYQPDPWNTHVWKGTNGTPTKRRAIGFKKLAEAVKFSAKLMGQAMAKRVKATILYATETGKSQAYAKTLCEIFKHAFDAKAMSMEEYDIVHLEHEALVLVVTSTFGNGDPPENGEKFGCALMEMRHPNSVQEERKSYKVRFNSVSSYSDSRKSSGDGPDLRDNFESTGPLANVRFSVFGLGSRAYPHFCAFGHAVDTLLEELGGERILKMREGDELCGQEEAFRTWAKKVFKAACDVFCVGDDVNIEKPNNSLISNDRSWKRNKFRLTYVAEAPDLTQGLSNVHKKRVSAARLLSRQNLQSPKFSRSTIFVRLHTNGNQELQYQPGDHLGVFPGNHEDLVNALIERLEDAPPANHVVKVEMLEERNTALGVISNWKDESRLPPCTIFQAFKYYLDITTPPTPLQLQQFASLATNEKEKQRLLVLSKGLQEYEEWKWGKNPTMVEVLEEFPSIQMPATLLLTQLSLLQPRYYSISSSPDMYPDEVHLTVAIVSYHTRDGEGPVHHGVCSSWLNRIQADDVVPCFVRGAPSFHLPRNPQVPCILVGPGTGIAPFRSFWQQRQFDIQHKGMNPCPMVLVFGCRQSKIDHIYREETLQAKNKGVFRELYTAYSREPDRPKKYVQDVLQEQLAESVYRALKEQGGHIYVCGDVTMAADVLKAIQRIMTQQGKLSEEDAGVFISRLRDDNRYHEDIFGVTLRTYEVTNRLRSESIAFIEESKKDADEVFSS
attribute.measured: IC50 (µM)

[[record]]
query_smiles = "N=C(Nc1ccc2nc(NC3CCN(Cc4ccccc4)CC3)sc2c1)c1cccs1"
attribute_measured = "IC50"
readout_number = 0.09

[[record]]
query_smiles = "NC(=Nc1ccc2nc(NC3CCN(CCc4cnc[nH]4)CC3)sc2c1)c1cccs1"
attribute_measured = "IC50"
readout_number = 4.8

[[record]]
query_smiles = "N=C(Nc1ccc2nc(NCCc3ccccn3)sc2c1)c1cccs1"
attribute_measured = "IC50"
readout_number = 0.05

[[record]]
query_smiles = "COc1cccc(CN2CCC(Nc3nc4ccc(N=C(N)c5cccs5)cc4s3)CC2)c1"
attribute_measured = "IC50"
readout_number = 6.7


----------
- Species on record: Homo sapiens
- test.details: Selectivity for human nNOS over human eNOS
# reported Ratio IC50; entries follow
attribute.measured: Ratio IC50

[[record]]
molecule = "N=C(Nc1ccc2sc(NCCN3CCOCC3)nc2c1)c1cccs1"
readout_number = 9

[[record]]
molecule = "CCSC(=N)Nc1ccc2nc(N)sc2c1"
readout_number = 7

[[record]]
molecule = "N=C(Nc1ccc2nc(NC3CCN(Cc4ccccc4)CC3)sc2c1)c1cccs1"
readout_number = 12

[[record]]
molecule = "N=C(Nc1ccc2sc(N)nc2c1)c1cccs1"
readout_number = 13

[[record]]
molecule = "N=C(Nc1ccc2nc(NC3CCOCC3)sc2c1)c1cccs1"
readout_number = 8

[[record]]
molecule = "COC(=O)c1ccc(CN2CCC(Nc3nc4ccc(NC(=N)c5cccs5)cc4s3)CC2)cc1"
readout_number = 18

[[record]]
molecule = "COc1cccc(CN2CCC(Nc3nc4ccc(NC(=N)c5cccs5)cc4s3)CC2)c1"
readout_number = 27

[[record]]
molecule = "N=C(Nc1ccc2nc(NCCc3ccc(Br)cc3)sc2c1)c1cccs1"
readout_number = 0.5

[[record]]
molecule = "N=C(Nc1ccc2sc(NC3CCN(Cc4ccc(F)cc4)CC3)nc2c1)c1cccs1"
readout_number = 16

[[record]]
molecule = "N=C(Nc1ccc2nc(NC3CCN(Cc4ccc(F)cc4)CC3)sc2c1)c1cccs1"
readout_number = 40

[[record]]
molecule = "N=C(Nc1ccc2sc(NC3CCN(Cc4ccccc4)CC3)nc2c1)c1cccs1"
readout_number = 40

[[record]]
molecule = "N=C(Nc1ccc2nc(NC3CCN(CCc4cnc[nH]4)CC3)sc2c1)c1cccs1"
readout_number = 2

[[record]]
molecule = "N=C(Nc1ccc2sc(NCCc3ccccn3)nc2c1)c1cccs1"
readout_number = 5

[[record]]
molecule = "N=C(Nc1ccc2nc(NC3CCN(Cc4ccc(C(=O)O)cc4)CC3)sc2c1)c1cccs1"
readout_number = 12

[[record]]
molecule = "N=C(Nc1ccc2nc(N)sc2c1)c1cccs1"
readout_number = 18

[[record]]
molecule = "N=C(Nc1ccc2nc(NCCc3ccccn3)sc2c1)c1cccs1"
readout_number = 1

[[record]]
molecule = "COc1ccc(CN2CCC(Nc3nc4ccc(NC(=N)c5cccs5)cc4s3)CC2)cc1"
readout_number = 28

[[record]]
molecule = "CN1CCCC1CCNc1nc2cc(NC(=N)c3cccs3)ccc2s1 (racemic)"
readout_number = 53

[[record]]
molecule = "CCSC(=N)Nc1ccc2sc(N)nc2c1"
readout_number = 3


----------
- target.entity: Nitric oxide synthase, inducible (Rattus norvegicus, UniProt Q06518)
- Sequence (Q06518 whole entry): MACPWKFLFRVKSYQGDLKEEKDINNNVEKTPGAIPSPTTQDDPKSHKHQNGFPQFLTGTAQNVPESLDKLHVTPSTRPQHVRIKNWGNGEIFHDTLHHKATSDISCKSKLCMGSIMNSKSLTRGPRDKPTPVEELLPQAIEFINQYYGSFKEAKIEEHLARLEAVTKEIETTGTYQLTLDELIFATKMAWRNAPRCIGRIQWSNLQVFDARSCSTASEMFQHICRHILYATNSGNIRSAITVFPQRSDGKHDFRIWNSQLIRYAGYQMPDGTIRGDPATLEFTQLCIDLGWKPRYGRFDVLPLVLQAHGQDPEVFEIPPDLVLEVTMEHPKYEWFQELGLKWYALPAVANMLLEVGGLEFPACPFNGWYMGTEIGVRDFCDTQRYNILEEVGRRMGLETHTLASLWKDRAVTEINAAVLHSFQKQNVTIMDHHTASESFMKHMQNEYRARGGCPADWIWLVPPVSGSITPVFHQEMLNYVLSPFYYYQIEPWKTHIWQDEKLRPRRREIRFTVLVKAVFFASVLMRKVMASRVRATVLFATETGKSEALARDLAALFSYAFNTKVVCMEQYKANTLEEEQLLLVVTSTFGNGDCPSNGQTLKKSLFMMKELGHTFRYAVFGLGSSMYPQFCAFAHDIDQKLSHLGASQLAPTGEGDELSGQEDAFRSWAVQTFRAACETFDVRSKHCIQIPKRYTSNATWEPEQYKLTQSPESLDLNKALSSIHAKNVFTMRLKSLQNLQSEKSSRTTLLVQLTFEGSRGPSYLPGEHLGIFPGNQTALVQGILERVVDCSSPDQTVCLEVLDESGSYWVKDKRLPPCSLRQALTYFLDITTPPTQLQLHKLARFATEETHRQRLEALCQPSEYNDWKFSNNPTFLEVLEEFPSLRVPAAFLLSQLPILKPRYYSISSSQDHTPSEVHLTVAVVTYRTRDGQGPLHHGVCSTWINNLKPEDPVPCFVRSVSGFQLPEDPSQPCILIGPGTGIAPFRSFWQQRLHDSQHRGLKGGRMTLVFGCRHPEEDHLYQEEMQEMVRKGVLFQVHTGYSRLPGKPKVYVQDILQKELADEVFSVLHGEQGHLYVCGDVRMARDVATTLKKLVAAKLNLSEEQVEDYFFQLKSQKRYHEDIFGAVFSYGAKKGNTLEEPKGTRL
- test.details: Inhibition of rat inducible NOS activity
pIC50: −log10 of the molar value.
attribute.measured: pIC50

[[record]]
query_smiles = "N=C(Nc1ccc2nc(NCCN3CCOCC3)sc2c1)c1cccs1"
readout_number = 4.36

[[record]]
query_smiles = "N=C(Nc1ccc2nc(NCCc3ccccn3)sc2c1)c1cccs1"
readout_number = 4.60

[[record]]
query_smiles = "NC(=Nc1ccc2nc(NC3CCN(CCc4cnc[nH]4)CC3)sc2c1)c1cccs1"
readout_number = 4.59

[[record]]
query_smiles = "N=C(Nc1ccc2nc(NC3CCN(Cc4ccccc4)CC3)sc2c1)c1cccs1"
readout_number = 4.44

